pIC50: −log10 of the molar value.
Collected set of pIC50 measured with Proto-oncogene tyrosine-protein kinase Src (Homo sapiens) across studies.

Recorded pIC50, per entry:
>  <smiles-structure>
CCOc1cccc(Cc2c[nH]c3ncc(-c4ccsc4)cc23)c1

>  <recorded-measurement>
≥ 5.00

$$$$
>  <smiles-structure>
C=CC(=O)N1CC[C@@H](N2CC(C#Cc3c(-c4ccc(C(F)(F)F)cc4)c4c(N)ncnc4n3C)C2)[C@@H](O)C1

>  <recorded-measurement>
6.00 to 8.00

$$$$
>  <smiles-structure>
C=CC(=O)N1CCC(N2CC(C#Cc3c(-c4ccc(Br)c(OC)c4)c4c(N)ncnc4n3C(C)C)C2)CC1

>  <recorded-measurement>
≥ 8.00

$$$$

Switching to the query record.
Summary line: O=C(NCCNc1ccccn1)c1nc2nc(Nc3ccc(F)cc3)ncc2cc1-c1ccccc1Br , Proto-oncogene tyrosine-protein kinase Src (Homo sapiens), reported pIC50 = 6.78

====

Collected set of IC50 measured with Proto-oncogene tyrosine-protein kinase Src (Homo sapiens, UniProt P12931) across studies.

>  <smiles-structure>
C=CC(=O)N1CC[C@@H](N2CC(C#Cc3c(-c4ccc(Cl)cc4)c4c(N)ncnc4n3C)C2)[C@@H](O)C1

>  <recorded-measurement>
0.01 to 1 µM

$$$$
>  <smiles-structure>
C=CC(=O)N1CC[C@@H](N2CC(C#Cc3c(-c4ccc(Cl)cc4)c4c(N)ncnc4n3CCOC)C2)[C@@H](O)C1

>  <recorded-measurement>
0.01 to 1 µM

$$$$
>  <smiles-structure>
CC(C)n1c(C#CC2CCN(C(=O)/C=C/CN(C)C)CC2)c(-c2ccc(Oc3ccccc3)cc2)c2c(N)ncnc21

>  <recorded-measurement>
0.01 to 1 µM

$$$$
>  <smiles-structure>
CCCc1ccc(S(=O)(=O)Nc2ccc(F)c(C(=O)c3c[nH]c4ncc(Cl)cc34)c2F)cc1

>  <recorded-measurement>
≤ 10 µM

$$$$
>  <smiles-structure>
O=C(c1c(F)ccc(NS(=O)(=O)CC(F)(F)F)c1F)c1c[nH]c2nccc(Cl)c12

>  <recorded-measurement>
≤ 10 µM

$$$$

Memo: CCCS(=O)(=O)Nc1ccc(Cl)c(C(=O)c2c[nH]c3ncc(Br)cc23)c1F , reported IC50: ≤ 10 µM

Memo: Nc1nc2ccccc2n1-c1ncnc(Nc2cccc(-c3cnco3)c2)n1 , reported IC50: 1.08 to 6.48 µM

Memo: CC(C)n1c(C#CC2CCN(C(=O)CCl)CC2)c(-c2ccc(Oc3ccccc3)cc2)c2c(N)ncnc21 , reported IC50: 0.01 to 1 µM

====

Collected set of pIC50 measured with Proto-oncogene tyrosine-protein kinase Src (Homo sapiens, UniProt P12931) across studies.
pIC50: −log10 of the molar value.

Recorded pIC50, per entry:
>  <molecule>
CN(C)CCC(=O)N1CCC(C#Cc2c(-c3ccc(Oc4ccccc4)cc3)c3c(N)ncnc3n2C)CC1

>  <recorded-measurement>
6.00 to 8.00

$$$$
>  <molecule>
Cc1cc(C)cc(Nc2nc3c(NCCCN(C)C)nccn3n2)c1

>  <recorded-measurement>
4.30 to 5.52

$$$$
>  <molecule>
CCCS(=O)(=O)Nc1ccc(F)c(C(=O)c2c[nH]c3ncc(F)cc23)c1F

>  <recorded-measurement>
≥ 5.00

$$$$
>  <molecule>
COc1cc(Nc2ncnc(-n3c(NCc4ccccn4)nc4ccccc43)n2)cc(OC)c1OC

>  <recorded-measurement>
< 5.03

$$$$
>  <molecule>
COC(=O)c1cc2cc(NCc3c(C)cccc3Cl)cnc2[nH]1

>  <recorded-measurement>
7.00 to 9.00

$$$$

Memo: Oc1ccc(F)c(C(O)c2c[nH]c3ncc(-c4cccnc4)cc23)c1F (stereo not drawn) , reported pIC50: ≥ 5.00

Memo: CCCS(=O)(=O)Nc1ccc(F)c(C(=O)c2c[nH]c3ncc(-c4nn[nH]n4)cc23)c1F , reported pIC50: ≥ 5.00

Memo: Nc1c(N2CCN(C3CCCCC3)CC2)cc(Nc2ccc(C(=O)O)cc2)c2c1C(=O)c1ccccc1C2=O , reported pIC50: < 5.00

Memo: Nc1ncc(-c2cccc(S(N)(=O)=O)c2)c2occ(-c3ccc(NC(=O)Nc4cc(C(F)(F)F)ccc4F)cc3)c12 , reported pIC50: 8.00 to 9.00
